Target: Nrg2 (UniProt P38082)
Sequence: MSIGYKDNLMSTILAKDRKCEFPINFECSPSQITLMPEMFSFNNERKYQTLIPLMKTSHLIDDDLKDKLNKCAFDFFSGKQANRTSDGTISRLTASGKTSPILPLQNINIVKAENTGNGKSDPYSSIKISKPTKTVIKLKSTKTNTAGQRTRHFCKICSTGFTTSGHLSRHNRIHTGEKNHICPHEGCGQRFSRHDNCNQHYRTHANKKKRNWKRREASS
Test: PBM E-score (8-mer binding enrichment) (E-score (-0.5 to 0.5)); higher = stronger / more preferred TF binding
Conditions: protein concentration: 100 nM; construct: GST-full length
Over roughly 33,000 sequences, “E-score (-0.5 to 0.5)” has its median near -8e-05; the highest 2% begin near 0.23. Many of the other results were omitted from the sample, so the highest values are more common in it than they were.
Quick rule for you: PBM E-score at 0.2 or higher means 1 (yes), lower means 0 (no).

[
  {
    "sequence-record": "CAGATGCA",
    "subject-of-test": "Nrg2 (UniProt P38082)",
    "class-assignment": "0 (no)"
  },
  {
    "sequence-record": "AGGGGTAG",
    "subject-of-test": "Nrg2 (UniProt P38082)",
    "class-assignment": "0 (no)"
  },
  {
    "sequence-record": "AGGGTCTC",
    "subject-of-test": "Nrg2 (UniProt P38082)",
    "class-assignment": "1 (yes)"
  },
  {
    "sequence-record": "CATCATTC",
    "subject-of-test": "Nrg2 (UniProt P38082)",
    "class-assignment": "0 (no)"
  },
  {
    "sequence-record": "CTATTATA",
    "subject-of-test": "Nrg2 (UniProt P38082)",
    "class-assignment": "0 (no)"
  },
  {
    "sequence-record": "ACGATCGA",
    "subject-of-test": "Nrg2 (UniProt P38082)",
    "class-assignment": "0 (no)"
  },
  {
    "sequence-record": "AATTTCGA",
    "subject-of-test": "Nrg2 (UniProt P38082)",
    "class-assignment": "0 (no)"
  },
  {
    "sequence-record": "CAGGGTAC",
    "subject-of-test": "Nrg2 (UniProt P38082)",
    "class-assignment": "1 (yes)"
  },
  {
    "sequence-record": "CGGGCCAG",
    "subject-of-test": "Nrg2 (UniProt P38082)",
    "class-assignment": "0 (no)"
  },
  {
    "sequence-record": "CTTCGGAC",
    "subject-of-test": "Nrg2 (UniProt P38082)",
    "class-assignment": "0 (no)"
  },
  {
    "sequence-record": "CAATTATA",
    "subject-of-test": "Nrg2 (UniProt P38082)",
    "class-assignment": "0 (no)"
  },
  {
    "sequence-record": "TCAAAGAA",
    "subject-of-test": "Nrg2 (UniProt P38082)",
    "class-assignment": "0 (no)"
  },
  {
    "sequence-record": "CGACAGCC",
    "subject-of-test": "Nrg2 (UniProt P38082)",
    "class-assignment": "0 (no)"
  },
  {
    "sequence-record": "CAATTATG",
    "subject-of-test": "Nrg2 (UniProt P38082)",
    "class-assignment": "0 (no)"
  },
  {
    "sequence-record": "AAGGGTAC",
    "subject-of-test": "Nrg2 (UniProt P38082)",
    "class-assignment": "0 (no)"
  },
  {
    "sequence-record": "ACTTCGAC",
    "subject-of-test": "Nrg2 (UniProt P38082)",
    "class-assignment": "0 (no)"
  },
  {
    "sequence-record": "CATTTCCA",
    "subject-of-test": "Nrg2 (UniProt P38082)",
    "class-assignment": "1 (yes)"
  },
  {
    "sequence-record": "GTCTACTA",
    "subject-of-test": "Nrg2 (UniProt P38082)",
    "class-assignment": "0 (no)"
  },
  {
    "sequence-record": "AAACCCAC",
    "subject-of-test": "Nrg2 (UniProt P38082)",
    "class-assignment": "1 (yes)"
  },
  {
    "sequence-record": "ACTCCTCA",
    "subject-of-test": "Nrg2 (UniProt P38082)",
    "class-assignment": "0 (no)"
  },
  {
    "sequence-record": "AGGGTCTG",
    "subject-of-test": "Nrg2 (UniProt P38082)",
    "class-assignment": "1 (yes)"
  },
  {
    "sequence-record": "CAATTATC",
    "subject-of-test": "Nrg2 (UniProt P38082)",
    "class-assignment": "1 (yes)"
  },
  {
    "sequence-record": "CGGGTCTA",
    "subject-of-test": "Nrg2 (UniProt P38082)",
    "class-assignment": "0 (no)"
  },
  {
    "sequence-record": "ATATTATA",
    "subject-of-test": "Nrg2 (UniProt P38082)",
    "class-assignment": "0 (no)"
  },
  {
    "sequence-record": "AATCATTA",
    "subject-of-test": "Nrg2 (UniProt P38082)",
    "class-assignment": "0 (no)"
  },
  {
    "sequence-record": "CCTTAGTC",
    "subject-of-test": "Nrg2 (UniProt P38082)",
    "class-assignment": "0 (no)"
  },
  {
    "sequence-record": "ACACTGCT",
    "subject-of-test": "Nrg2 (UniProt P38082)",
    "class-assignment": "0 (no)"
  },
  {
    "sequence-record": "GCAAACCA",
    "subject-of-test": "Nrg2 (UniProt P38082)",
    "class-assignment": "0 (no)"
  },
  {
    "sequence-record": "AAATTATA",
    "subject-of-test": "Nrg2 (UniProt P38082)",
    "class-assignment": "0 (no)"
  },
  {
    "sequence-record": "AAGAAAAG",
    "subject-of-test": "Nrg2 (UniProt P38082)",
    "class-assignment": "0 (no)"
  },
  {
    "sequence-record": "GTTAGCGA",
    "subject-of-test": "Nrg2 (UniProt P38082)",
    "class-assignment": "0 (no)"
  },
  {
    "sequence-record": "CATTTATC",
    "subject-of-test": "Nrg2 (UniProt P38082)",
    "class-assignment": "0 (no)"
  },
  {
    "sequence-record": "GCGGACAA",
    "subject-of-test": "Nrg2 (UniProt P38082)",
    "class-assignment": "0 (no)"
  },
  {
    "sequence-record": "CAGGGTAA",
    "subject-of-test": "Nrg2 (UniProt P38082)",
    "class-assignment": "1 (yes)"
  },
  {
    "sequence-record": "AGTCCATA",
    "subject-of-test": "Nrg2 (UniProt P38082)",
    "class-assignment": "0 (no)"
  },
  {
    "sequence-record": "GTATTATA",
    "subject-of-test": "Nrg2 (UniProt P38082)",
    "class-assignment": "1 (yes)"
  },
  {
    "sequence-record": "CGAAGCGC",
    "subject-of-test": "Nrg2 (UniProt P38082)",
    "class-assignment": "0 (no)"
  },
  {
    "sequence-record": "CATCATTA",
    "subject-of-test": "Nrg2 (UniProt P38082)",
    "class-assignment": "1 (yes)"
  },
  {
    "sequence-record": "TAAATCGA",
    "subject-of-test": "Nrg2 (UniProt P38082)",
    "class-assignment": "0 (no)"
  },
  {
    "sequence-record": "TGCCAACA",
    "subject-of-test": "Nrg2 (UniProt P38082)",
    "class-assignment": "0 (no)"
  },
  {
    "sequence-record": "CACGCAGG",
    "subject-of-test": "Nrg2 (UniProt P38082)",
    "class-assignment": "0 (no)"
  },
  {
    "sequence-record": "AGGGTCTA",
    "subject-of-test": "Nrg2 (UniProt P38082)",
    "class-assignment": "1 (yes)"
  },
  {
    "sequence-record": "CATTTCGC",
    "subject-of-test": "Nrg2 (UniProt P38082)",
    "class-assignment": "0 (no)"
  }
]
